Values were extracted from paper PMC3353862.

Listed next: entries and their corresponding MIC S. pneumo.
Test system: S. pneumoniae
Experiment: Broth microdilution MIC testing
Assay type: cell-based, Streptococcus pneumoniae
Conditions: S. pneumoniae
Kindly provide the numeric value in µg/mL only, without the unit symbol.

I'm curious: which MIC S. pneumo was measured for O=c1[nH]c(-c2ccccn2)nc2c1CN(Cc1ccc(Cl)c(Cl)c1)CC2 [Compound 323342] tested on S. pneumoniae? 2

Request body: readout MIC S. pneumo, system S. pneumoniae, query O=c1[nH]c(-c2ccccn2)nc2c1CN(Cc1cc(Cl)ccc1Cl)CC2 [Compound 323340] . Return the value. 2

What MIC S. pneumo appears in the records for this compound with S. pneumoniae? COc1ccc(OC)c(CN2CCc3nc(-c4ccccn4)[nH]c(=O)c3C2)c1 [Compound 323191] 32

----------
Tested on: E. coli tolC mutants
Assay: Broth microdilution MIC testing
Format: cell-based, Escherichia coli
Conditions: E. coli tolC mutants
MEASURED_METRIC: MIC E. coli tolC (µg/mL)
Number only, in µg/mL; omit the unit.

O=c1[nH]c(-c2ccccn2)nc2c1CN(Cc1cc(Cl)cc(Cl)c1)CC2 ... 2
CC(C)(C)Oc1ccc(CN2CCc3nc(-c4ccccn4)[nH]c(=O)c3C2)cc1 ... 4
O=c1[nH]c(-c2ccccn2)nc2c1CN(Cc1cccc(Br)c1Br)CC2 ... 2
O=c1[nH]c(-c2ccccn2)nc2c1CN(Cc1cccc(F)c1F)CC2 ... 8

Consider the compound `CCOCc1cc(CN2CCc3nc(-c4ccccn4)[nH]c(=O)c3C2)ccc1OC` and give its measured MIC E. coli tolC. 64

Give its MIC E. coli tolC value. Item: `O=c1[nH]c(-c2ccccn2)nc2c1CN(Cc1cccc(Cl)c1Cl)CC2` 1

----------
Test system: bacterial protein synthesis (aminoacylation/translation system)
Test: aminoacylation/translation (A/T) assay
Format: biochemical
Conditions: A/T assay, Table 1; read-out: IC50
MEASURED_METRIC: IC50 (µM)
Write the number in µM without appending the unit.

What value of measured IC50 is listed for O=c1[nH]c(-c2ccccn2)nc2c1CN(Cc1ccccc1N1CCCC1)CC2 [Compound 323195] ? 1.5

Quick one: IC50 of CCOc1ccc(CN2CCc3nc(-c4ccccn4)[nH]c(=O)c3C2)cc1Cn1ccnc1 [Compound 323239] ? 3

Bench note: what IC50 did COc1cc(CN2CCc3nc(-c4ccccn4)[nH]c(=O)c3C2)ccc1O [Compound 323215] show? 2.1

Request the reported IC50 associated with CCOc1cc2c(cc1CN1CCc3nc(-c4ccccn4)[nH]c(=O)c3C1)OCO2 [Compound 323199] 1.1

----------
// values below are reported IC50
Test system: bacterial protein synthesis (aminoacylation/translation system)
Assay: aminoacylation/translation (A/T) assay
Format: biochemical
Details: A/T assay, Table 1; read-out: IC50
Kindly answer with a numeric value in µM, unit omitted.

Illustrative cases are given below, each with its answer.
COc1cccc(CN2CCc3nc(-c4ccccn4)[nH]c(=O)c3C2)c1OC [Compound 323223] ... 14.7
C=CCOc1ccccc1CN1CCc2nc(-c3ccccn3)[nH]c(=O)c2C1 [Compound 323194] ... 3.4
O=c1[nH]c(-c2ccccn2)nc2c1CN(Cc1ccc(Cl)c(Cl)c1)CC2 [Compound 323342] ... 28.9
COc1ccc(CN2CCc3nc(-c4ccccn4)[nH]c(=O)c3C2)cc1Cn1cccn1 [Compound 323234] ... 5.8

Recorded IC50 for O=c1nc(-c2ccccn2)nc2ccn(Cc3ccc(Cl)cc3)cc1-2 [Compound 332055] , please? 16.4

Field request: IC50 | item: O=c1[nH]c(-c2ccccn2)nc2c1CN(Cc1cccc(F)c1F)CC2 [Compound 323237] 2.8

Bench note: what IC50 did Oc1nc(-c2ccccn2)nc2c1CN(Cc1ccccc1)CC2 [Compound 321524] show? 2

----------
Tested on: S. pneumoniae
Test: Broth microdilution MIC testing
Type: cell-based, Streptococcus pneumoniae
Details: S. pneumoniae
Catalogue of molecules with associated MIC S. pneumo
Give your result in µg/mL as a bare value.

O=c1[nH]c(-c2ccccn2)nc2c1CN(Cc1cccc(Br)c1Br)CC2 ... 2

Value lookup for MIC S. pneumo; key = `O=c1[nH]c(-c2ccccn2)nc2c1CN(Cc1ccc(Cl)cc1Cl)CC2` 2

----------
System: bacterial protein synthesis (aminoacylation/translation system)
Experiment: aminoacylation/translation (A/T) assay
Type: biochemical
Conditions: A/T assay, Table 1; read-out: IC50
The entries below come with measured IC50 values attached.
Write down the numeric answer in nM and omit the unit.

Request - read-out IC50 | tested on bacterial protein synthesis (aminoacylation/translation system) | compound `CC(=O)Oc1ccc(CN2CCc3nc(-c4ccccn4)[nH]c(=O)c3C2)cc1` 2100

Request body: readout IC50, system bacterial protein synthesis (aminoacylation/translation system), query `CC(C)(C)Oc1ccc(CN2CCc3nc(-c4ccccn4)[nH]c(=O)c3C2)cc1` . Return the value. 2470

bacterial protein synthesis (aminoacylation/translation system) / IC50 / `O=C(Cc1ccc(Cl)cc1)N1CCc2nc(-c3ccccn3)[nH]c(=O)c2C1` : value? 2010

Item: `Oc1nc(-c2ccccn2)nc2c1CCN(Cc1ccc(Cl)cc1)C2` Test system: bacterial protein synthesis (aminoacylation/translation system) Read-out: IC50 Value: ? 64400

Request body: readout IC50, system bacterial protein synthesis (aminoacylation/translation system), query `CC(C)Oc1ccc(CN2CCc3nc(-c4ccccn4)[nH]c(=O)c3C2)cc1` . Return the value. 2270

Requested read-out IC50, target or system bacterial protein synthesis (aminoacylation/translation system), entry `O=c1[nH]c(-c2ccccn2)nc2c1CN(Cc1cccc(Br)c1Br)CC2` 1890

Give the reported IC50 for `O=c1[nH]c(-c2ccccn2)nc2c1CN(Cc1ccc(Br)cc1)CC2` (system: bacterial protein synthesis (aminoacylation/translation system)). 41400

----------
Test system: bacterial protein synthesis (aminoacylation/translation system)
Test: aminoacylation/translation (A/T) assay
Type: biochemical
Details: original hits retested; read-out: IC50 (retested in the A/T assay)
MEASURED_METRIC: IC50 (nM)
Just the number please, in nM, no unit attached.

COc1cccc(CN2CCc3nc(-c4ccccn4)nc(O)c3C2)c1 ... 1200

Consider the record given below.
Could you share which IC50 value was measured for `Oc1nc(-c2ccccn2)nc2c1CN(Cc1cccc(F)c1)CC2` ? 2800

----------
System: S. aureus
Experiment: Broth microdilution MIC testing
Format: cell-based, Staphylococcus aureus
Details: Staphylococcus aureus, read-out: MIC S. aureus
MEASURED_METRIC: MIC

Oc1nc(-c2ccncc2)nc2c1CN(Cc1cccc(F)c1)CC2 ... > 128 µg/mL
Oc1nc(-c2ccccn2)nc2c1CN(Cc1ccc(F)cc1)CC2 ... 128 µg/mL
O=C(Nc1ccc(Cl)cc1)N1CCc2nc(-c3ccccn3)[nH]c(=O)c2C1 ... > 128 µg/mL

What value of MIC has been recorded for this entry: `O=C(c1ccc(Cl)cc1)N1CCc2nc(-c3ccccn3)[nH]c(=O)c2C1` > 128 µg/mL

What MIC value was documented for this compound, `Cn1c(-c2ccccn2)nc2c(c1=O)CN(Cc1ccc(Cl)cc1)CC2` ? > 128 µg/mL

----------
Test system: E. coli modified with PMBN
Test: Broth microdilution MIC testing
Assay type: cell-based, Escherichia coli
Details: Escherichia coli, read-out: MIC E. coli +PMBP
MEASURED_METRIC: MIC

Look up MIC with E. coli modified with PMBN for this molecule: `O=c1[nH]c(-c2ccco2)nc2c1CN(Cc1ccc(Cl)cc1)CC2` > 128 µg/mL

Lab note: need MIC with E. coli modified with PMBN for entry `COc1ccccc1CN1CCc2nc(-c3ccccn3)nc(O)c2C1` , please look it up. > 128 µg/mL

For the record `COc1ccc(CN2CCc3nc(-c4ccccn4)nc(O)c3C2)cc1` , what value of MIC is listed for E. coli modified with PMBN? 128 µg/mL

Give E. coli modified with PMBN MIC for `Oc1nc(-c2ccncc2)nc2c1CN(Cc1cccc(F)c1)CC2` > 128 µg/mL

Recall the recorded MIC for `Cc1cccc(-c2nc3c(c(=O)[nH]2)CN(Cc2ccc(Cl)cc2)CC3)n1` with E. coli modified with PMBN and state it. > 128 µg/mL

Notebook entry, E. coli modified with PMBN assay: MIC of `O=c1[nH]c(-c2cccs2)nc2c1CN(Cc1ccc(Cl)cc1)CC2` = ? > 128 µg/mL

Request: MIC, test system E. coli modified with PMBN, entry `O=c1nc(-c2ccccn2)nc2ccn(Cc3ccc(Cl)cc3)cc1-2` 64 µg/mL

Value wanted: MIC (E. coli modified with PMBN) of entry `O=C(Nc1ccc(Cl)cc1)N1CCc2nc(-c3ccccn3)[nH]c(=O)c2C1` > 128 µg/mL

Observed MIC on E. coli modified with PMBN for `Cc1nc(-c2nc3c(c(=O)[nH]2)CN(Cc2ccc(Cl)cc2)CC3)cs1` , please. > 128 µg/mL

# value lookup — system E. coli modified with PMBN, readout MIC, item `Oc1nc(-c2ccccn2)nc2c1CCN(Cc1ccc(Cl)cc1)C2` 8 µg/mL

Kindly state the measured MIC obtained for `O=c1[nH]c(-c2cnccn2)nc2c1CN(Cc1ccc(Cl)cc1)CC2` with E. coli modified with PMBN. > 128 µg/mL

# get_value(readout= MIC, system= E. coli modified with PMBN) for `O=c1[nH]c(-c2ccccn2)nc2c1CN(CCc1ccc(Cl)cc1)CC2` 8 µg/mL

Entry `O=C(c1ccc(Cl)cc1)N1CCc2nc(-c3ccccn3)[nH]c(=O)c2C1` , system E. coli modified with PMBN: what MIC was measured? 128 µg/mL

// map `Cn1c(-c2ccccn2)nc2c(c1=O)CN(Cc1ccc(Cl)cc1)CC2` to recorded MIC (system: E. coli modified with PMBN) 128 µg/mL

// fetch E. coli modified with PMBN MIC for `Oc1cccc(CN2CCc3nc(-c4ccccn4)nc(O)c3C2)c1` > 128 µg/mL

Fill in the recorded MIC for this molecule, with E. coli modified with PMBN as test system: `COc1cccc(CN2CCc3nc(-c4ccncc4)nc(O)c3C2)c1` > 128 µg/mL
